Each recorded value in this set is attributed to patent US6887896B1.

Sequence of the target: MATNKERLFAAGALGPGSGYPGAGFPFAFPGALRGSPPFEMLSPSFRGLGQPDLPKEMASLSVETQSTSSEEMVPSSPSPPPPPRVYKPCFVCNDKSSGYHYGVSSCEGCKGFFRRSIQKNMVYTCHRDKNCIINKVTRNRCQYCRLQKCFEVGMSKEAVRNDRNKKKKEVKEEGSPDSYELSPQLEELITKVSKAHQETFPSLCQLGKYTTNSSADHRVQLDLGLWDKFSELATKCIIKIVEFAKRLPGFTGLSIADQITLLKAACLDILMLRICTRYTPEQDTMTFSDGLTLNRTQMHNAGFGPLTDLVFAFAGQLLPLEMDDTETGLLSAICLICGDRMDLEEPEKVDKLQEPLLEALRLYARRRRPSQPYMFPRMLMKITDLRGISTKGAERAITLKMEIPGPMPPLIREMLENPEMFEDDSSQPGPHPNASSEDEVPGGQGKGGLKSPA
Measured metric: pKi
To interpret pKi, take it as minus log10 of a concentration measured in moles per litre.

Example results:
| Chem smiles | Measured metric | Test result |
| --- | --- | --- |
| CCOc1cc2c(cc1\C(C)=C/C=C/C(C)=C/C(=O)O)C(CC)=CC(C)(C)O2 | pKi | 5.64 |
| CCOc1c(\C(CC)=C(F)/C=C/C(C)=C/C(=O)O)cc2c(c1Cl)OC(C)(C)C=C2C(C)C | pKi | 5.62 |
| CCOc1cc2c(cc1\C(CC)=C(F)/C=C/C(C)=C/C(=O)O)C(C)=CC(C)(C)O2 | pKi | 5.62 |
| CCOc1cc2c(cc1\C(CC)=C(F)/C=C/C(C)=C/C(=O)O)C(C(C)(C)C)=CCC2(C)C | pKi | 6.16 |
| CCOc1cc2c(cc1\C(=C/C=C/C(C)=C/C(=O)O)CC)C(C)=CCC2(C)C | pKi | 5.42 |
| CC/C(=C(F)/C=C/C(C)=C/C(=O)O)c1cc2c(cc1OC)OC(C)(C)C=C2C(C)C | pKi | 5.57 |
| CCCOc1cc2c(cc1\C(C)=C(F)/C=C/C(C)=C/C(=O)O)C(c1ccccc1)=CC(C)(C)O2 | pKi | 6.12 |

Consider the additional compound presented here.
Sample CC/C(=C/C=C/C(C)=C/C(=O)O)c1cc2c(cc1OC)OC(C)(C)C=C2C(C)C ; pKi observed: 5.46

====

- Target or test system: RXRα (Homo sapiens)
- Assay summary: holoreceptor transactivation assay, RXRα
- Condition: holoreceptor transactivation; read-out: RXR Trans. EC50 α
- Description: Specifically, one such assay is a chimeric receptor transactivation assay which tests for agonist-like activity in the R RAPE and RAR7 receptor subtypes, and which is based on work published by Feigner, P. L. and Holm, M (1989) Focus, 112 is described in detail in U.S. Pat. No. 5,455,265. The specification of U.S. Pat. No. 5,455,265 is hereby expressly incorporated by reference. […]
Classification by EC50 follows these ranges: low band: < 1 nM; middle band: ≥ 1 nM and < 10 nM; high band: ≥ 10 nM

Here are 3 molecules together with their reported answers.
| Chem smiles | Discrete label |
| --- | --- |
| CCOc1cc2c(cc1\C(CC)=C(F)/C=C/C(C)=C/C(=O)O)C=CCC2(C)C | high band |
| CC(/C=C/C(F)=C(/C)c1cc2c(c(Cl)c1OC(C)C)OC(C)(C)C=C2C(C)C)=C\C(=O)O | high band |
| CCOc1cc2c(cc1\C(=C/C=C/C(C)=C/C(=O)O)CC)C(C)=CCC2(C)C | high band |

[ask] Exercise: read the entry CCOc1c(\C(=C/C=C/C(C)=C/C(=O)O)CC)cc2c(c1Cl)OC(C)(C)C=C2C(C)C and state which class it falls under.
[reply] middle band

[ask] Exercise: read the entry CCOc1cc2c(cc1\C(CC)=C(F)/C=C/C(C)=C/C(=O)O)C(CC)=CCC2(C)C and state which class it falls under.
[reply] middle band

[ask] Exercise: read the entry CC/C(=C/C=C/C(C)=C/C(=O)O)c1cc2c(cc1OC)OC(C)(C)C=C2C(C)C and state which class it falls under.
[reply] low band

====

Each entry below lists one item and its recorded log10 Ki value.
- Target or test system: RXRα (Homo sapiens)
- Sequence (P19793 1-462): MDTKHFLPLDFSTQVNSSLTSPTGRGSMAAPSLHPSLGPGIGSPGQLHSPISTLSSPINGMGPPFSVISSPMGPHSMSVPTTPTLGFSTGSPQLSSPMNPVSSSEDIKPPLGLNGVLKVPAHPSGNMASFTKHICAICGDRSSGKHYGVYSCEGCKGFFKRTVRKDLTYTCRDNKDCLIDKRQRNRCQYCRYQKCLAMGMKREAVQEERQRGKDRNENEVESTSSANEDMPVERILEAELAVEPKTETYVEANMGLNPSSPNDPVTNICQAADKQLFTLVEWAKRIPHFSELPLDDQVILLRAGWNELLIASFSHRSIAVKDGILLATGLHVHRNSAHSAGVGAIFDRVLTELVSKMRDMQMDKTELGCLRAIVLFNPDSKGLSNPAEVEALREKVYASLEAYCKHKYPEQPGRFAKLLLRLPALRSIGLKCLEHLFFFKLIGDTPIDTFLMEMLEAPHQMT
In plain terms, each number is the log10 of measured Ki in nM.

Example results:
| Chem smiles | log10 Ki |
| --- | --- |
| CCOc1cc2c(cc1\C(CC)=C(F)/C=C/C(C)=C/C(=O)O)C(C)=CC(C)(C)O2 | 2.09 |
| CCCOc1cc2c(cc1\C(C)=C(F)/C=C/C(C)=C/C(=O)O)C(C(C)C)=CCC2(C)C | 1.00 |
| CCOc1cc2c(cc1\C(CC)=C(F)/C=C/C(C)=C/C(=O)O)C=CCC2(C)C | 0.78 |
| COc1cc2c(cc1\C(C)=C(F)/C=C/C(C)=C/C(=O)O)C(C(C)C)=CC(C)(C)O2 | 0.85 |
| CC/C(=C(F)/C=C/C(C)=C/C(=O)O)c1cc2c(cc1OC)OC(C)(C)C=C2C(C)C | 0.48 |

Sample COc1c(\C(C)=C/C=C/C(C)=C/C(=O)O)cc2c(c1Cl)OC(C)(C)C=C2C(C)C ; log10 Ki observed: 0.30

Sample CCCCOc1cc2c(cc1\C(C)=C(F)/C=C/C(C)=C/C(=O)O)C(C(C)C)=CC(C)(C)O2 ; log10 Ki observed: 0.90

Sample CCOc1cc2c(cc1\C(C)=C(F)/C=C/C(C)=C/C(=O)O)C=CCC2(C)C ; log10 Ki observed: 1.54

====

Sequence of the target: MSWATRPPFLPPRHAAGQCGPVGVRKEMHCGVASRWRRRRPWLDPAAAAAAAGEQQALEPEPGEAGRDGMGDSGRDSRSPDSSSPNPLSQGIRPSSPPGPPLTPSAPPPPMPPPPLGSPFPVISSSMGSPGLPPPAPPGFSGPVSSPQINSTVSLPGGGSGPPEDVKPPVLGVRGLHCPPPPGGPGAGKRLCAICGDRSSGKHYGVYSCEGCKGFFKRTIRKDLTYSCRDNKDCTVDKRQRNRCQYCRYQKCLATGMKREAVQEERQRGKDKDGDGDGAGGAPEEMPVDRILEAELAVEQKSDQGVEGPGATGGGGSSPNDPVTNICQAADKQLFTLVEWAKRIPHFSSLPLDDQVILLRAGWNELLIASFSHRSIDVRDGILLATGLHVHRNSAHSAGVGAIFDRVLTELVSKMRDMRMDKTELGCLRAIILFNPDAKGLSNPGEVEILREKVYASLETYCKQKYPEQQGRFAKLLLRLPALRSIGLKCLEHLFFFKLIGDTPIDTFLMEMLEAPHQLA
Measured metric: Ki (nM)
Field format: number, assumed nM, no unit text.

Example results:
| Chem smiles | Unit of measurement | Ki |
| --- | --- | --- |
| CCOc1cc2c(cc1\C(=C/C=C/C(C)=C/C(=O)O)CC)C(C(C)(C)C)=CCC2(C)C | nM | 31 |
| CCOc1c(\C(C)=C/C=C/C(C)=C/C(=O)O)cc2c(c1Cl)OC(C)(C)C=C2C(C)C | nM | 76 |

Consider the additional compound presented here.
Sample CC(/C=C/C(F)=C(/C)c1cc2c(cc1OCC1CC1)C(C)(C)CC=C2C(C)C)=C\C(=O)O ; Ki observed: 33

====

So I've got pKi readings for UniProt P10276, take a look.
Sequence (P10276 whole entry, species assumed): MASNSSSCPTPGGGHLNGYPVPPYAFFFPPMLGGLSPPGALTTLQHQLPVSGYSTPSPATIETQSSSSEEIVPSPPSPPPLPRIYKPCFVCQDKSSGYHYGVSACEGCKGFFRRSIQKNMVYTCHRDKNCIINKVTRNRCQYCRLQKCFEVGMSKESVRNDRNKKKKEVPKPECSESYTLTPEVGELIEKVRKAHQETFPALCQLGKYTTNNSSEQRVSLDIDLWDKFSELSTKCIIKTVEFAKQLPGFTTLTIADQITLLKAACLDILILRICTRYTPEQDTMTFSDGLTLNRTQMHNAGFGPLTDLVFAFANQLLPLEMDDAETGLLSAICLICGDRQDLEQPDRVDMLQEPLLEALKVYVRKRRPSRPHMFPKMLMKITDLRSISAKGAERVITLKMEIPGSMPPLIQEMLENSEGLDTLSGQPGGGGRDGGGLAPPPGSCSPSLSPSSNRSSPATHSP
To interpret pKi, take it as minus log10 of a concentration measured in moles per litre.

Example results:
| Chem smiles | pKi |
| --- | --- |
| CCCOc1cc2c(cc1\C(C)=C(F)/C=C/C(C)=C/C(=O)O)C(c1ccccc1)=CC(C)(C)O2 | 6.52 |
| CCCCOc1cc2c(cc1\C(C)=C(F)/C=C/C(C)=C/C(=O)O)C(C(C)C)=CC(C)(C)O2 | 6.07 |
| CC(/C=C/C(F)=C(/C)c1cc2c(cc1OCC1CC1)C(C)(C)CC=C2C(C)C)=C\C(=O)O | 6.23 |
| COc1c(\C(C)=C/C=C/C(C)=C/C(=O)O)cc2c(c1Cl)OC(C)(C)C=C2C(C)C | 6.00 |
| CC/C(=C(F)/C=C/C(C)=C/C(=O)O)c1cc2c(cc1OC)OC(C)(C)C=C2C(C)C | 6.88 |

Record CCOc1cc2c(cc1\C(C)=C(F)/C=C/C(C)=C/C(=O)O)C(C)=CCC2(C)C has UniProt P10276 pKi equal to 6.58

Record CCOc1c(\C(CC)=C(F)/C=C/C(C)=C/C(=O)O)cc2c(c1Cl)OC(C)(C)C=C2C(C)C has UniProt P10276 pKi equal to 6.99

Record CCOc1cc2c(cc1\C(CC)=C(F)/C=C/C(C)=C/C(=O)O)C=CCC2(C)C has UniProt P10276 pKi equal to 6.52

Record CCOc1cc2c(cc1\C(C)=C(F)/C=C/C(C)=C/C(=O)O)C(C(C)(C)C)=CCC2(C)C has UniProt P10276 pKi equal to 6.41

Record CCOc1c(\C(C)=C/C=C/C(C)=C/C(=O)O)cc2c(c1Cl)OC(C)(C)C=C2C(C)C has UniProt P10276 pKi equal to 6.13
